Hey, just so you know, these numbers are from ChEMBL document CHEMBL4602669.

- Test system: HCT-116
- Test details: Antiproliferative activity against human HCT116 cells by MTT assay
- Format: functional
I'd be grateful if you could share measured GI50 for these entries.

For the record `CC[C@@]1(C)CCC[C@]2(C)[C@H]3C[C@H](O)[C@]4(C)C5=C(CC[C@H]4[C@]3(C)CC[C@@H]12)C(=O)C[C@H]5O` , what value of GI50 is listed for HCT-116?
> 30 µM

For the record CC[C@@]1(C)CCC[C@]2(C)[C@H]3C[C@H](OC(=O)CC(C)O)[C@]4(C)C=C(C(C)=O)[C@H](O)C[C@H]4[C@]3(C)CC[C@@H]12 (stereo partly drawn) , what value of GI50 is listed for HCT-116?
> 30 µM

For the record CC(=O)O[C@@H](C)[C@@]1(C)CCC[C@@]2(C)[C@H]1CC[C@]1(C)[C@@H]2C[C@H](OC(=O)CC(C)O)[C@]2(C)C=C(C(C)=O)[C@H](O)C[C@H]21 (stereo partly drawn) , what value of GI50 is listed for HCT-116?
> 30 µM
